- assay.notes: Half life in Sprague-Dawley rat at 1 mg/kg,iv
- Format: ADME, organism-based
- condition.summary: in vivo
readout: half-life
Lab note: write values as number then unit, every time.

Prompt line: Need half-life, item Cc1cccc(-c2cc(C#N)cc(Oc3c(C(F)(F)F)ccn(Cc4n[nH]c(=O)n4C)c3=O)c2)c1
Response line: 1.9 h

* * *

- system.tested: UniProt P10635
- Sequence (P10635 whole entry): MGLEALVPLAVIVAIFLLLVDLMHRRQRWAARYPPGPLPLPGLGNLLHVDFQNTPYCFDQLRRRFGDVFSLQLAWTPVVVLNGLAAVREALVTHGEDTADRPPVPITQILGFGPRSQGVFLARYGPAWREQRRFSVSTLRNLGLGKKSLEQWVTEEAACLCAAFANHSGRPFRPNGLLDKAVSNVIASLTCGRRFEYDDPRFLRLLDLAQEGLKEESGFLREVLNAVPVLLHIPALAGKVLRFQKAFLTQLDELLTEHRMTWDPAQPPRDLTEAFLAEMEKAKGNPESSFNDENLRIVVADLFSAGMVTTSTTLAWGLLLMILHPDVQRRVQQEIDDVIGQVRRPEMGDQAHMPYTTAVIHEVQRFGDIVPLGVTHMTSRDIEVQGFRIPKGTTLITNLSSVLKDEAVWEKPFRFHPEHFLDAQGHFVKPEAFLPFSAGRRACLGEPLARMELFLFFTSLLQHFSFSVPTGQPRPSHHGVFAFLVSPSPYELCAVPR
- assay.notes: Inhibition of CYP2D6 (unknown origin)
- Format: ADME
readout: IC50 (µM)
Please respond with the number in µM and leave the unit unwritten.

Prompt line: Need IC50, item COc1ccc2c(c1)[C@]13CCCC[C@@H]1[C@H](C2)N(C)CC3
Response line: 0.043
